molecular target: human ether-à-go-go-related gene (hERG) potassium channel (human, UniProt Q12809); assay: primary screen, population patch clamp on CHO cells stably expressing hERG; higher = less effect of the substance;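 further: peak tail current of the secondary pulse compared with the same well before compound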
Sequence (Q12809 whole entry, looked up): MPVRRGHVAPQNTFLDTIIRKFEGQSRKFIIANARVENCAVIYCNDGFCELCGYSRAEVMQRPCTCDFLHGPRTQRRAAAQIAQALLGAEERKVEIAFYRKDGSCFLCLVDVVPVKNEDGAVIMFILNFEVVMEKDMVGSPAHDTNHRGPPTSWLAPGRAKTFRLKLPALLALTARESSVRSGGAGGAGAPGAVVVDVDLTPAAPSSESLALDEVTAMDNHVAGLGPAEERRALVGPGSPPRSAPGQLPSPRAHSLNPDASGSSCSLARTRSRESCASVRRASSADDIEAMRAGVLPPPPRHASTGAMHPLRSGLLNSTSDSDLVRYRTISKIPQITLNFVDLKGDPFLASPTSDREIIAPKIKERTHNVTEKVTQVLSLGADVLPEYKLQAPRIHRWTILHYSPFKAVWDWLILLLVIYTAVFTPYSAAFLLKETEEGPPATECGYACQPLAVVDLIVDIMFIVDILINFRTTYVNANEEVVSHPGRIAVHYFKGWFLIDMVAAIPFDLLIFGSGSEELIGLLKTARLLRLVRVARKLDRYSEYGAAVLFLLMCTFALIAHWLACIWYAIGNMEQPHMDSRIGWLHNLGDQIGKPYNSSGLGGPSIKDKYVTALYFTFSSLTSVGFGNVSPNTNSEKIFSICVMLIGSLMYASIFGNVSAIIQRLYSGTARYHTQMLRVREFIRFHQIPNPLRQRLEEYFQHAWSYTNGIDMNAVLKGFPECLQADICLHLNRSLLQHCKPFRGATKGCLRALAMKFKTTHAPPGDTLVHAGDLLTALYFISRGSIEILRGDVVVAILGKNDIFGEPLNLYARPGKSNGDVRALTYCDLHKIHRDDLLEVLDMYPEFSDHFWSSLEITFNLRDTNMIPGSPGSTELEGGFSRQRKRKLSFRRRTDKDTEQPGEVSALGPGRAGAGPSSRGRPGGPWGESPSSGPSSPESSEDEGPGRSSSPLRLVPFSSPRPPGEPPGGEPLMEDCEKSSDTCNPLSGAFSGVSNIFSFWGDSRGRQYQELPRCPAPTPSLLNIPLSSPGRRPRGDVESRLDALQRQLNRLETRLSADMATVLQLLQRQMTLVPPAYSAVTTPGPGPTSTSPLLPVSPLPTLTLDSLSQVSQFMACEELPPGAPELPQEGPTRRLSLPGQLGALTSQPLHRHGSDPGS
In all, about 310,000 compounds went through this assay and about 14,000 (4.5%) showed an effect of 50% or more. The effect is printed as a negative number. The entries come from a sample that favours strong results as a whole.
Each entry below lists one item and its recorded hERG current change (%, negative = inhibition) at 10uM value.
observable: hERG current change (%, negative = inhibition) at 10uM

# molecule, value
records = [
    ("O=C(/C=C/c1ccccc1)Nc1cc(S(=O)(=O)N2CCOCC2)ccc1N1CCCC1", "-1.04%"),
    ("O=C(/C=C/c1ccc(F)cc1)Nc1ccc(S(=O)(=O)N2CCOCC2)cc1", "9%"),
    ("Cc1ccc(/C=C/C(=O)Nc2cc(S(=O)(=O)N3CCOCC3)ccc2N2CCOCC2)cc1", "-43.2%"),
    ("N#C/C(=C(/O)c1ccc(Cl)cc1)c1nc2ccccc2[nH]1", "7.3%"),
    ("Cc1ccc(N2C(=O)NC(=O)C(CCc3ccccn3)(Cc3ccc(F)cc3)C2=O)cc1 (stereo not shown)", "12.9%"),
    ("COc1ccc(N2C(=O)NC(=O)C(CCc3ccncc3)(CCc3ccncc3)C2=O)cc1", "-23.6%"),
    ("CC1CCCN(c2ccc(F)cc2N)C1.Cl (stereo not shown)", "11.2%"),
    ("COc1cc(OC)cc(C(=O)N[C@H](C(=O)OCC(=O)Nc2ccc(F)c(F)c2)C(C)C)c1", "-8.85%"),
    ("Cc1ccc(N2C(=O)NC(=O)C(CCc3ccncc3)(Cc3cccc(Cl)c3Cl)C2=O)cc1 (stereo not shown)", "6.14%"),
    ("CCN(CC(=O)NCc1ccc(Cl)cc1)C(=O)/C=C/c1ccc(Cl)c([N+](=O)[O-])c1", "-67.6%"),
    ("O=C1NC(=O)C(CCc2ccncc2)(CCc2ccccn2)C(=O)N1c1ccc(Br)cc1 (stereo not shown)", "-75.6%"),
    ("COc1ccc(CC(=O)NCc2nnc(SCC(=O)Nc3ccc(OC)cc3)n2C)cc1", "4.08%"),
    ("O=C(/C=C/c1ccc2c(c1)OCO2)Nc1cc(S(=O)(=O)N2CCOCC2)ccc1N1CCOCC1", "-55.9%"),
    ("COc1cc(/C=C/C(=O)Nc2cc(S(=O)(=O)N3CCOCC3)ccc2N2CCCC2)cc(OC)c1OC", "24%"),
    ("O=C(NCCNC(=O)c1ccccc1)c1ccccc1", "2.89%"),
    ("CCCCCCn1c(O)c(C(C)=NC)c(=O)[nH]c1=O", "1.56%"),
    ("CCN(CC(=O)NCc1ccc(Cl)cc1)C(=O)/C=C/c1cccs1", "-49.1%"),
    ("CCN(CC(=O)Nc1ccccc1C(F)(F)F)C(=O)/C=C/c1ccc(Cl)c([N+](=O)[O-])c1", "10.1%"),
    ("Cc1cc(Oc2ccc(=O)n(C)n2)nc(SCc2ccccc2)n1", "25.7%"),
]

* * *

target: human ether-à-go-go-related gene (hERG) potassium channel (human, UniProt Q12809); test: primary screen, population patch clamp on CHO cells stably expressing hERG; higher = less effect of the substance;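 further: peak tail current of the secondary pulse compared with the same well before compound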
Screen size: about 310,000 compounds; about 14,000 (4.5%) showed an effect of 50% or more. Effects have a minus sign here. Shown is part of a subset that was picked to be rich in strong results.
observable: hERG current change (%, negative = inhibition) at 10uM (%)

# molecule, target, readout units, value
records = [
    ("CC(C)(C)OC(=O)NCCCC[C@H](NC(=O)c1nc[nH]c1C(=O)NC(c1ccccc1)c1ccccc1)C(=O)OC(C)(C)C", "human ether-à-go-go-related gene (hERG) potassium channel (human, UniProt Q12809)", "%", 8.48),
    ("O=C(CCS(=O)(=O)Cc1ccccc1)N1CCN(Cc2ccccc2)CC1", "human ether-à-go-go-related gene (hERG) potassium channel (human, UniProt Q12809)", "%", -22.1),
    ("Cc1cccc(OCC(=O)NCC(=O)n2nc(C)cc2C)c1", "human ether-à-go-go-related gene (hERG) potassium channel (human, UniProt Q12809)", "%", 10.5),
    ("O=C(CCCC(=O)N1CCN(c2cccc(Cl)c2)CC1)c1ccccc1", "human ether-à-go-go-related gene (hERG) potassium channel (human, UniProt Q12809)", "%", -44.2),
    ("CCOc1ccccc1NC(=O)CCCCCN1C(=O)[C@@H]2Cc3ccccc3CN2C1=O", "human ether-à-go-go-related gene (hERG) potassium channel (human, UniProt Q12809)", "%", -42.6),
    ("CCCCN(CCCC)CCNC(=O)c1cn(CC)c2ccc(S(=O)(=O)N3CCCC3)cc2c1=O", "human ether-à-go-go-related gene (hERG) potassium channel (human, UniProt Q12809)", "%", -65.7),
    ("Cc1ccccc1OCC(=O)N/N=C/c1c(C)nn(-c2ccccc2)c1Cl", "human ether-à-go-go-related gene (hERG) potassium channel (human, UniProt Q12809)", "%", 1.74),
    ("CCOc1ccc(OCC)c(NC(=O)C2CCN(c3ncccn3)CC2)c1", "human ether-à-go-go-related gene (hERG) potassium channel (human, UniProt Q12809)", "%", -30),
    ("COC(=O)Cn1ncn2c(cc3oc(C)cc32)c1=O", "human ether-à-go-go-related gene (hERG) potassium channel (human, UniProt Q12809)", "%", 13.1),
    ("CCN1CCCC1CNCc1ccc(Cl)cc1Cl.Cl (stereo not drawn)", "human ether-à-go-go-related gene (hERG) potassium channel (human, UniProt Q12809)", "%", -64.6),
    ("COc1cccc(CNn2cnnc2)c1OCc1ccccc1F", "human ether-à-go-go-related gene (hERG) potassium channel (human, UniProt Q12809)", "%", 6.85),
    ("O=C(CCN1CCOCC1)c1ccc(Cl)cc1", "human ether-à-go-go-related gene (hERG) potassium channel (human, UniProt Q12809)", "%", 28.3),
    ("CCCCNC(=O)c1cn(C)c2ccc(S(=O)(=O)N3CCCC3)cc2c1=O", "human ether-à-go-go-related gene (hERG) potassium channel (human, UniProt Q12809)", "%", 12.6),
    ("O=C(c1cnc2sccn2c1=O)N1CCN(c2ccccc2Cl)CC1", "human ether-à-go-go-related gene (hERG) potassium channel (human, UniProt Q12809)", "%", -2.33),
    ("Cc1cn2c(=O)c(C(=O)N3CCN(c4ccccc4Cl)CC3)cnc2s1", "human ether-à-go-go-related gene (hERG) potassium channel (human, UniProt Q12809)", "%", -62.8),
    ("O=C(COC(=O)c1ccc2ncsc2c1)NCc1ccc(Cl)cc1", "human ether-à-go-go-related gene (hERG) potassium channel (human, UniProt Q12809)", "%", -4.62),
    ("O=C(CCS(=O)(=O)Cc1ccccc1)N1CCN(c2ccc([N+](=O)[O-])cc2)CC1", "human ether-à-go-go-related gene (hERG) potassium channel (human, UniProt Q12809)", "%", -81.6),
    ("CC[C@@]12C(=O)N(c3ccccc3)C(=O)N1[C@H](c1ccc(Br)cc1)[C@@H]1C(=O)N(C(C)(C)C)C(=O)[C@@H]12", "human ether-à-go-go-related gene (hERG) potassium channel (human, UniProt Q12809)", "%", 4.22),
    ("O=C1c2cccc3cccc(c23)C(=O)N1OS(=O)(=O)c1ccc(Br)cc1", "human ether-à-go-go-related gene (hERG) potassium channel (human, UniProt Q12809)", "%", 24.2),
    ("Cc1cc(NC(=O)c2ccccc2)sc1C", "human ether-à-go-go-related gene (hERG) potassium channel (human, UniProt Q12809)", "%", 5.55),
    ("COC(=O)c1sccc1NC(=S)N1CCCC(C)C1 (stereo not drawn)", "human ether-à-go-go-related gene (hERG) potassium channel (human, UniProt Q12809)", "%", 14.6),
    ("CC(=O)Nc1ccc(NC(=O)c2sc(-c3ccccc3)nc2C)cc1", "human ether-à-go-go-related gene (hERG) potassium channel (human, UniProt Q12809)", "%", 10.6),
    ("CCOC(=O)c1c(C)[nH]c(C)c1C(=O)COC(=O)c1cccc(S(=O)(=O)NC)c1", "human ether-à-go-go-related gene (hERG) potassium channel (human, UniProt Q12809)", "%", -7.56),
    ("CCOc1cc(CNCC2CCCN2CC)cc(Cl)c1OC.Cl (stereo not drawn)", "human ether-à-go-go-related gene (hERG) potassium channel (human, UniProt Q12809)", "%", -18),
    ("COc1ccc(-n2cc(CN3CCCC3)c(-c3cccc(F)c3)n2)cc1", "human ether-à-go-go-related gene (hERG) potassium channel (human, UniProt Q12809)", "%", -57),
    ("COc1cc(Br)cc(Br)c1OCC(=O)N/N=C/c1c(C)n(C)n(-c2ccccc2)c1=O", "human ether-à-go-go-related gene (hERG) potassium channel (human, UniProt Q12809)", "%", -23.1),
    ("O=C(CCS(=O)(=O)Cc1ccccc1)N1CCN(c2ccccc2)CC1", "human ether-à-go-go-related gene (hERG) potassium channel (human, UniProt Q12809)", "%", -7.79),
    ("CC(=O)c1ccc(N2CCN(C(=O)CCc3ccccc3)CC2)cc1", "human ether-à-go-go-related gene (hERG) potassium channel (human, UniProt Q12809)", "%", -54.1),
    ("O=C(CCN1CCN(c2ccc([N+](=O)[O-])cc2)CC1)c1ccc(Cl)cc1", "human ether-à-go-go-related gene (hERG) potassium channel (human, UniProt Q12809)", "%", -72.4),
    ("COc1ccc(/C=N/N=C2/NC(=O)C(CC(=O)O)S2)cc1OCc1ccc(Cl)cc1 (stereo not drawn)", "human ether-à-go-go-related gene (hERG) potassium channel (human, UniProt Q12809)", "%", -1.97),
    ("COc1ccc(C2=NS(=O)(=O)N(C)C(C(=O)NC3CCCC3)=C2)cc1", "human ether-à-go-go-related gene (hERG) potassium channel (human, UniProt Q12809)", "%", 2.43),
    ("CCCCN(CCCC)CCNC(=O)c1cn(C)c2ccc(S(=O)(=O)N3CCCC3)cc2c1=O", "human ether-à-go-go-related gene (hERG) potassium channel (human, UniProt Q12809)", "%", -57.9),
    ("CCCCSCCCNC(=O)c1cn(C)c2ccc(S(=O)(=O)N3CCCC3)cc2c1=O", "human ether-à-go-go-related gene (hERG) potassium channel (human, UniProt Q12809)", "%", 11.2),
    ("COc1ccccc1NC(=O)Nc1nc(CC(=O)Nc2ccc(F)cc2)cs1", "human ether-à-go-go-related gene (hERG) potassium channel (human, UniProt Q12809)", "%", -1.25),
    ("Cc1cc(C(C)(C)C)ccc1OCC(=O)N/N=C\\c1c(C)n(C)n(-c2ccccc2)c1=O", "human ether-à-go-go-related gene (hERG) potassium channel (human, UniProt Q12809)", "%", -66.3),
    ("COc1ccc(CNC(=O)CN2C(=O)CC(c3ccccc3)=Nc3ccccc32)cc1", "human ether-à-go-go-related gene (hERG) potassium channel (human, UniProt Q12809)", "%", -8.66),
    ("CCN1CCCC1CNCc1cccc(OC)c1OCc1ccccc1F.Cl (stereo not drawn)", "human ether-à-go-go-related gene (hERG) potassium channel (human, UniProt Q12809)", "%", -54.4),
    ("COc1cccc(CNc2ccccc2O)c1OCc1ccccc1F", "human ether-à-go-go-related gene (hERG) potassium channel (human, UniProt Q12809)", "%", -1.17),
    ("O=C(CCc1ccccc1)N1CCN(c2ccc(Cl)cc2)CC1", "human ether-à-go-go-related gene (hERG) potassium channel (human, UniProt Q12809)", "%", -35.1),
]

Values were extracted from paper PMC4336329.
